- systemTested: T1, CD80 (Sino Biological, Cat #10698-H08H) (UniProt P33681 35-242)
- T1 sequence (looked up): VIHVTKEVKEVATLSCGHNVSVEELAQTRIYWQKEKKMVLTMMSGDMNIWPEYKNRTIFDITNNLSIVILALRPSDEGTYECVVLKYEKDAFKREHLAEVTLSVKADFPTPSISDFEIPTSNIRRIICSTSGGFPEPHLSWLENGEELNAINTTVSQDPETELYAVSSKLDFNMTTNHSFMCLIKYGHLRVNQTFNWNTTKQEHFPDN
- testDescription: ELISA
measuredParameter: binding result

INSERT INTO assay_data (binder, assayresult) VALUES
  ('62E6 (antibody, human IgG1, V domains shown) VH: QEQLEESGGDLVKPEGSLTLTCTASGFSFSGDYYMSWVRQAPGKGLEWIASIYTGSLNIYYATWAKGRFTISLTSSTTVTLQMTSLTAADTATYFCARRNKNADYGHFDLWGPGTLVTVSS VL: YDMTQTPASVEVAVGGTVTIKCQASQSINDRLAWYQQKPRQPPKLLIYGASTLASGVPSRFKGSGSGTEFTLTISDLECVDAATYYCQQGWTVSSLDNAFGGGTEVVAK', 'no binding'),
  ('73C8 (antibody, human IgG1, V domains shown) VH: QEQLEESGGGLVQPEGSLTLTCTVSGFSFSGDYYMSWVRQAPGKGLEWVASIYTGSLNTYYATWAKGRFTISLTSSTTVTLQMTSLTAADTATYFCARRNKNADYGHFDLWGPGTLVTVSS VL: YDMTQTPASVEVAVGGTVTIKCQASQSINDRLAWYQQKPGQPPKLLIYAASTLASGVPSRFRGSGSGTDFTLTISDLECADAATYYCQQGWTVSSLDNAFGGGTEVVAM', 'no binding'),
  ('33H7 (antibody, human IgG1, V domains shown) VH: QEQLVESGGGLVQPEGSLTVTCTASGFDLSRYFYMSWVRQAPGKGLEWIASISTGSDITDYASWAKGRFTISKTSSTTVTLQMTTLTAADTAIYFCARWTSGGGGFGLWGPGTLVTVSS VL: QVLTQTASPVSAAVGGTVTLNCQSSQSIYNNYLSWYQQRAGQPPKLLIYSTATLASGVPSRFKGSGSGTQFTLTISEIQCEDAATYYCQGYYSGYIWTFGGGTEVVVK', 'no binding');
